This collection of values is drawn from patent US12291533B2.

# subject of test: glucocerebrosidase (Homo sapiens, UniProt P04062)
# test method notes: Glucocerebrosidase activity assay with blue substrate (4MU-Glc)
# Format: biochemical
# measurement conditions: Table 1; 7.5 nM enzyme, 1.5 mM 4MU-Glc, 30 min at 37° C., titration 24 nM to 50 μM
measurement type: log10(AC50) (log10 of the value in µM)
In plain terms, each number is the log10 of measured AC50 in µM.

Provide log10(AC50) values for the following items, in order.
1. CN(CCOc1cccc(CCO)c1)c1nc(-c2cccnc2)nc2ccccc12
2. CN(CCOc1ccccc1)c1nc(-c2ccc(F)nc2)nc2ccccc12
3. CN(CCOc1ccccc1)c1nc(-c2cccnc2F)nc2ccccc12

Reply:
[1.20, 0.20, 0.05]

Provide log10(AC50) values for the following items, in order.
1. CN(CCOc1ccccc1)c1nc(-c2cccnc2)nc2cccc(F)c12
2. Cc1sc2nc(-c3cccnc3)nc(N(C)CCOc3ccccc3)c2c1C
3. CN(CCOc1ccccc1)c1nc(-c2cncc(Cl)c2)nc2ccccc12
4. O=C(O)CCCCCCCN(CCOc1ccccc1)c1nc(-c2cccnc2)nc2ccccc12

Reply:
[1.13, 1.60, 0.08, 0.25]

Provide log10(AC50) values for the following items, in order.
1. CN(CCOc1ccc(CCc2ccccc2)cc1)c1nc(-c2cccnc2)nc2ccccc12
2. Cn1ncc2c(NCCOC3CCCCC3)nc(-c3cccnc3)nc21
3. CCN(CCOc1ccccc1)c1nc(-c2cccnc2)nc2ccccc12
4. CN(CCOc1ccc(CN)cc1)c1nc(-c2cccnc2)nc2ccccc12

Reply:
1.20
1.65
0.70
0.61

Provide log10(AC50) values for the following items, in order.
1. CN(CCOc1ccccc1)c1nc(Nc2ccccc2)nc2ccccc12
2. CN(CCOc1ccccc1)c1nc(-c2ccnc3ccccc23)nc2ccccc12
3. C#Cc1ccc(OCCN(C)c2nc(-c3cccnc3)nc3ccccc23)cc1

Reply:
[0.85, 0.50, 0.45]

Provide log10(AC50) values for the following items, in order.
1. Cc1noc(C)c1-c1nc(N(C)CCOc2ccccc2)c2ccccc2n1
2. CN(CCOc1ccccc1)c1nc(-c2cccnc2)nc2c1cnn2C
3. COC(=O)Cc1ccc(CNc2nc(-c3cccnc3)nc3ccccc23)cc1
4. CN(CCc1c[nH]c2ccccc12)c1nc(-c2cccnc2)nc2ccccc12

Reply:
1: 0.34; 2: 0.19; 3: 0.40; 4: 0.70

Ask: // query log10(AC50) value for entry CN(CCOc1ccccc1)c1cc(-c2cccnc2)nc(-c2cccnc2)n1
Reply: 0.35

----------
Record form. Attribute: Emax. Fill in for each entry.
# subject of test: glucocerebrosidase (Homo sapiens)
# test method notes: Glucocerebrosidase activity assay with blue substrate (4MU-Glc)
# Type: biochemical
# measurement conditions: Table 1; 7.5 nM enzyme, 1.5 mM 4MU-Glc, 30 min at 37° C.
Numbers only, in %.

Below, each entry is followed by its recorded Emax result.
structure: CCn1ncc2c(N(C)Cc3ccc4c(c3)OCO4)nc(-c3cccnc3)nc21
measurement type: Emax
assay result: 400
--
structure: CN(Cc1ccc2ccccc2n1)c1nc(-c2cccnc2)nc2c1cnn2C
measurement type: Emax
assay result: 425
--
structure: CN(CCOc1cccc(C(=O)O)c1)c1nc(-c2cccnc2)nc2ccccc12
measurement type: Emax
assay result: 442
--
structure: CN(CCOc1ccccc1)c1nc(-c2coc3ccccc23)nc2ccccc12
measurement type: Emax
assay result: 120
--
structure: CN(CCOc1ccccc1)c1nc(-c2cccnc2)nc2c1SCC2
measurement type: Emax
assay result: 327
--
structure: CN(CCOc1ccc(CCc2ccccc2)cc1)c1nc(-c2cccnc2)nc2ccccc12
measurement type: Emax
assay result: 180
--
structure: CCn1ncc2c(N(C)CCOc3ccc(CNC(=O)CCCCCNC(=O)OC(C)(C)C)cc3)nc(-c3cccnc3)nc21
measurement type: Emax
assay result: 675
--
structure: CN(C[C@H]1COc2ccccc2O1)c1nc(-c2cccnc2)nc2ccccc12
measurement type: Emax
assay result: 645
--
structure: CN(CCOc1ccccc1)c1nc(-c2cncc(C(F)(F)F)c2)nc2ccccc12
measurement type: Emax
assay result: 250
--
structure: O=C(CCCCCCCN(CCOc1ccccc1)c1nc(-c2cccnc2)nc2ccccc12)ON1C(=O)CCC1=O
measurement type: Emax
assay result: 500

Provide Emax values for the following items, in order.
1. CN(CCOc1ccccc1)c1nc(-c2ccnc3ccccc23)nc2ccccc12
2. CC(C)n1ncc2c(N(C)CCOc3ccccc3)nc(-c3cccnc3)nc21
3. CCn1ncc2c(N(C)C[C@H]3COc4ccccc4O3)nc(-c3cccnc3)nc21
4. O=C(O)CCCCCCCN(CCOc1ccccc1)c1nc(-c2cccnc2)nc2ccccc12
5. CN(CCOc1ccccc1)c1nc(-c2cccnc2)nc2c(F)cccc12
6. Cc1cc(C)cc(OCCN(C)c2nc(-c3cccnc3)nc3ccccc23)c1
7. CN(CCOc1ccc(CN)cc1)c1nc(-c2cccnc2)nc2ccccc12
8. CN(CCOc1ccccc1)c1nc(-c2cccnc2)nc2c1CCC2

Reply:
1. 280
2. 140
3. 250
4. 150
5. 700
6. 225
7. 300
8. 295

----------
# subject of test: glucocerebrosidase (Homo sapiens, UniProt P04062)
# test method notes: Glucocerebrosidase activity assay with blue substrate (4MU-Glc)
# Type: biochemical
# measurement conditions: Table 2; additional compounds, tested as described in Example 2
measurement type: AC50 (nM)
One number for each entry, in nM.

structure: CN(CCOc1ccccc1)c1nc(-c2cccnc2)nc2c1cnn2Cc1ccccc1
subject of test: glucocerebrosidase (Homo sapiens, UniProt P04062)
measurement type: AC50
assay result: 2000

structure: CCc1ccc(-c2nc(N(C)CCOc3ccc(C#N)cc3)c3cnn(CC)c3n2)cc1
subject of test: glucocerebrosidase (Homo sapiens, UniProt P04062)
measurement type: AC50
assay result: 3160

structure: CN(CCOc1ccccc1)c1cc(N2CC(O)C2)nc(-c2cccnc2)n1
subject of test: glucocerebrosidase (Homo sapiens, UniProt P04062)
measurement type: AC50
assay result: 2500

Provide AC50 values for the following items, in order.
1. CCn1ncc2c(N(C)CCOc3ccc(CNC(=O)CCCCNC(=O)OC(C)(C)C)cc3)nc(-c3ccsc3)nc21
2. CN(CCOc1ccccc1)c1nc(-c2cccnc2)nc2c1oc1ccccc12
3. CCCn1ncc2c(N(C)CCOc3ccccc3)nc(-c3cccnc3)nc21
4. Cn1ncc2c(N3CCC[C@@H](C(=O)Nc4ccccc4)C3)nc(-c3cccnc3)nc21
5. CN(CCOc1ccccc1)c1nc(-c2cccnc2)nc2cccnc12

Reply:
1. 400
2. 1580
3. 800
4. 14100
5. 5010

----------
# subject of test: glucocerebrosidase (Homo sapiens, UniProt P04062)
# test method notes: Glucocerebrosidase activity assay with blue substrate (4MU-Glc)
# Type: biochemical
# measurement conditions: Table 1; 7.5 nM enzyme, 1.5 mM 4MU-Glc, 30 min at 37° C., titration 24 nM to 50 μM
Note to self: AC50 under 9 µM means fulfilled, ties and anything higher get not fulfilled.

These solved cases illustrate the format of a correct answer.
compound: CN(CCOc1ccccc1)c1nc(-c2cncc(F)c2)nc2ccccc12
label: fulfilled

compound: CCn1ncc2c(N(C)CCOc3ccccc3)nc(-c3cccnc3)nc21
label: fulfilled

compound: Cn1ncc2c(NCC3CCc4ccccc4O3)nc(-c3cccnc3)nc21 (centres unmarked)
label: not fulfilled

Here is the next item to consider.
Ask: Would you kindly verify if AC50 of CN(CCOc1ccccc1)c1nc(-c2cccnc2)nc2c1ncn2C is strictly less than 9 µM?
Reply: not fulfilled

----------
# subject of test: glucocerebrosidase (Homo sapiens)
# Sequence (P04062 40-536): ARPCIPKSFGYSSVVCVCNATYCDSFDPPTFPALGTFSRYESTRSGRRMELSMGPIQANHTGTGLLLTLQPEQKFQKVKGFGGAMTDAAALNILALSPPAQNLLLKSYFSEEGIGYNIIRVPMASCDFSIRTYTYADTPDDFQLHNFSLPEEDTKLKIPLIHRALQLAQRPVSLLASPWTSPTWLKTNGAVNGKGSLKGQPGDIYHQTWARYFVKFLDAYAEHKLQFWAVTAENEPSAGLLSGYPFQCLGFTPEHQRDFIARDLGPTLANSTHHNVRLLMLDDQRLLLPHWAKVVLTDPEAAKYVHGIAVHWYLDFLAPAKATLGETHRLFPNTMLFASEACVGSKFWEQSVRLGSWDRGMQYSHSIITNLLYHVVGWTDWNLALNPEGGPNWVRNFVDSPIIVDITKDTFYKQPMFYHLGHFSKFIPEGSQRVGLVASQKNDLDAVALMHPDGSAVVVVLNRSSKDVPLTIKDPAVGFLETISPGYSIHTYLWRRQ
# test method notes: Glucocerebrosidase activity assay with blue substrate (4MU-Glc)
# Assay type: biochemical
# measurement conditions: Table 2; additional compounds, tested as described in Example 2
measurement type: Emax (%)
One number for each entry, in %.

structure: CCn1ncc2c(N(C)CCOc3ccc(CNC(=O)CNC(=O)OC(C)(C)C)cc3)nc(-c3cccnc3)nc21
measurement type: Emax
assay result: 980

Provide Emax values for the following items, in order.
1. CCCCCCCCCN(C)c1nc(-c2cccnc2)nc2ccccc12
2. CN(CCOc1ccccc1)c1nc(-c2cnc3ccccc3c2)nc2ccccc12
3. CN(CCOc1ccc2nccnc2c1)c1nc(-c2cccnc2)nc2ccccc12

Reply:
118
185
875
